# Measurement Description: Encapsulation efficiency of RNA (QUANT-IT RIBOGREEN RNA assay)
# Type: physicochemical
# Stated Conditions: nanoparticle composition with hEPO mRNA (Table 30)
For each record, check the reported EE: if it is below 90% write YES, else write NO.

>>> discrete_label("CCCCCCCCCOC(=O)CCCCCCCN(CCO)CCCCCCCC(=O)OC(CCCCCCCC)CCCCCCCC [Compound 18]")
"YES"
>>> discrete_label("CCCCCCCCCCCOC(=O)CCCCCN(CCO)CCCCCCCC(=O)OC(CCCCCCCC)CCCCCCCC [Compound 25]")
"YES"
>>> discrete_label("CCCCCCCCCOC(=O)CCCN(CCO)CCCCCCCC(=O)OC(CCCCCCCC)CCCCCCCC [Compound 26]")
"NO"

====

# Measurement Description: Encapsulation efficiency of RNA (QUANT-IT RIBOGREEN RNA assay)
# Type: physicochemical
# Stated Conditions: lipid nanoparticle, ±SD within one assay run (Table 37)
Quick list: % Encapsulation per entry.
Measured Parameter: % Encapsulation (%)

>>> result("CCCCCCCCCOC(=O)CCCCCCCN(CCCCCCCC(=O)OC(CCCCCCCC)CCCCCCCC)CCN(C)C")
95.2
>>> result("CCCCCCCCC(CCCCCCCC)OC(=O)CCCCCCCN(CCO)CCCCCCCC(=O)OC(CCCCCCCC)CCCCCCCC")
97.0
>>> result("CCCCCCCCCOC(=O)CCCCCCCN(CCO)CCCCCCCC(=O)OC(CCCCCCCC)CCCCCCCC")
97.5
>>> result("CCCCCCCCCOC(=O)CCCN(CCO)CCCCCCCC(=O)OC(CCCCCCCC)CCCCCCCC")
97.4
>>> result("CCCCC/C=C\\C/C=C\\CCCCCCCCC(CCCCCCCC/C=C\\C/C=C\\CCCCC)OC(=O)CCCN(C)C [MC3, DLin-MC3-DMA, reference compound]")
97.3
>>> result("CCCCC/C=C\\C/C=C\\CCCCCCCCN(CCO)CCCCCCCC(=O)OC(CCCCCCCC)CCCCCCCC")
97.6
>>> result("CCCCCCCCCOC(=O)CCCCCCCN(CCO)CCCCCCCC(=O)OCCCCCCCCC")
91.8
>>> result("CCCCCCCCCCCOC(=O)CCCCCN(CCO)CCCCCCCC(=O)OC(CCCCCCCC)CCCCCCCC")
95.8
>>> result("CCCCCCCCCOC(=O)CCCCCCCN(CCCCCCCC(=O)OC(CCCCCCCC)CCCCCCCC)CCCNC(=O)C(C)(C)COC")
96.9
>>> result("CCCCC/C=C\\C/C=C\\CCCCCCCCN(CCO)CCCCCCCC(=O)OCCCCCCCCC")
90.9

====

Readings of App. pKa for the listed molecules
# Measurement Description: Apparent (surface) pKa of the LNP formulation (TNS assay)
# Type: physicochemical
# Stated Conditions: Table 3F
# Description: Using sodium hydroxide (1 M) and hydrochloric acid (1 M), 21 unique buffers were prepared from the master buffer stock at pH values between about 3 and 12. […] After careful mixing, the resulting fluorescence values were read for each plate to create a sigmoidal plot of the fluorescence values vs. buffer pH. […]
Measured Parameter: App. pKa

>>> result("CCCCCCCCCOC(=O)CCCCCCCN(CCCCCCCC(=O)OC(CCCCCCCC)CCCCCCCC)CC(O)CO (centres unmarked)")
6.95
>>> result("CCCCCCCCCN(CCCO)CCCCCCCC(=O)OC(CCCCCCCC)CCCCCCCC")
6.74
>>> result("CCCCCCCCCOC(=O)CCCCCCCN(CCCCCCCC(=O)OC(CCCCCCCC)CCCCCCCC)CCCNc1c(N(C)C)c(=O)c1=O")
7.63
>>> result("CCCCCCCCCOC(=O)CCCCCCCN(CCCCCCCC(=O)OC(CCCCCCCC)CCCCCCCC)C(C)CO (centres unmarked)")
6.27
>>> result("CCCCCCCCCOC(=O)CCCCCCCN(CCCCCCCC(=O)OC(CCCCCCCC)CCCCCCCC)CCCN/C(=N/C#N)N(C)C")
6.90
>>> result("CCCCCCCCCOC(=O)CCCCCCCN(CCCCCCCC(=O)OC(CCCCCCCC)CCCCCCCC)C(CO)CO")
6.57
>>> result("CCCCCCCCCOC(=O)CCCCCCCN(CCCCCCCC(=O)OC(CCCCCCCC)CCCCCCCC)CCCN/C(=C/[N+](=O)[O-])NC")
6.60
>>> result("CCCCCCCCCOC(=O)CCCCCCCN(CCO)CCCCCCCCCC(=O)OC(CCCCCCCC)CCCCCCCC")
6.88

====

# System: sC5b-9
# Measurement Description: Complement activation in vitro (sC5b-9 levels)
# Assay type: cell-based
# Stated Conditions: human cells contacted in vitro
Classification field: TRUE = Fold increase in sC5b-9 levels versus saline at or over 0.8; FALSE = Fold increase in sC5b-9 levels versus saline under 0.8.

>>> discrete_label("CCCCCCCCC(CCCCCCCC)OC(=O)CCCCCCCN(CCO)CCCCCCCC(=O)OC(CCCCCCCC)CCCCCCCC")
"TRUE"
>>> discrete_label("CCCCC/C=C\\C/C=C\\CCCCCCCCC(CCCCCCCC/C=C\\C/C=C\\CCCCC)OC(=O)CCCN(C)C [MC3, DLin-MC3-DMA, reference compound]")
"FALSE"
>>> discrete_label("CCCCCCCCCOC(=O)CCCCCCCN(CCO)CCCCCCCOC(=O)C(CCCCCCCC)CCCCCCCC")
"TRUE"
>>> discrete_label("CCCCCCCC/C=C\\COC(=O)CCCCCN(CCO)CCCCCC(=O)OC/C=C\\CCCCCCCC")
"FALSE"

====

# Measurement Description: Particle size and polydispersity index of nanoparticle compositions (Zetasizer Nano ZS)
# Format: physicochemical
# Stated Conditions: Table 1A
Could you please mark condition met for values of PDI below 0.1 and condition not met for values at or above it?

>>> discrete_label("CCCCCCCCCOC(=O)CCCCCCCN(CCCCCCCC(=O)OC(CCCCCCCC)CCCCCCCC)C(C)CO (stereo not shown)")
"condition met"
>>> discrete_label("CCCCCCCCCOC(=O)CCCCCCCN(CCO)CCCCCCCC(=O)OC(COCCCCCC)COCCCCCC")
"condition not met"
>>> discrete_label("CCCCC/C=C\\C/C=C\\CCCCCCCCN(CCO)CCCCCCCC(=O)OC(CCCCCCCC)CCCCCCCC")
"condition met"
>>> discrete_label("CCCCCCCCCOC(=O)CCCCCCCN(CCO)CCCCCCCOC(=O)C(CCCCCCCC)CCCCCCCC")
"condition not met"
>>> discrete_label("CCCCCCCCC(CCCCCCCC)OC(=O)CCCCCCCN(CCO)CCCC(=O)OC1CCC(CCCCC)CC1 (stereo not shown)")
"condition not met"
>>> discrete_label("CCCCC/C=C\\C/C=C\\CCCCCCCCC(CCCCCCCC/C=C\\C/C=C\\CCCCC)OC(=O)CCCN(C)C [MC3, DLin-MC3-DMA, reference compound]")
"condition not met"
>>> discrete_label("CCCCCCCCCOC(=O)CCCCCCCN(CCO)CCCCCCCC(=O)OC(CCC)CCCCCCCC (stereo not shown)")
"condition not met"

====

# Measurement Description: Apparent (surface) pKa of the LNP formulation (TNS assay)
# Assay type: physicochemical
# Stated Conditions: Table 3G
# binarize Apparent pKa: threshold 7 inclusive, high side criterion met, low side criterion not met

>>> discrete_label("CCCCCCCCCOC(=O)CCCCCCCN(CCCCCCCC(=O)OC(CCCCCCCC)CCCCCCCC)CCCNC(=O)N(C)C [Compound 110]")
"criterion met"
>>> discrete_label("CCCCCCCCCC(=O)OCCCCCCCN(CCO)CCCCCCCOC(=O)C(CCCCCCCC)CCCCCCCC [Compound 151]")
"criterion not met"
>>> discrete_label("CCCCCCCCCOC(=O)CCCCCCCN(CCCCCCCC(=O)OC(CCCCCCCC)CCCCCCCC)CCCNC(=O)NC [Compound 112]")
"criterion met"
>>> discrete_label("CCCCCCCCCOC(=O)CCCCCCCN(CCO)CCCCCCCOC(=O)C(CCCCCCCC)CCCCCCCC [Compound 30]")
"criterion not met"

====

# Measurement Description: Encapsulation efficiency of RNA (QUANT-IT RIBOGREEN RNA assay)
# Format: physicochemical
# Stated Conditions: Table 1A
# From the text: For nanoparticle compositions including an RNA, a QUANT-IT™ RIBOGREEN® RNA assay (Invitrogen Corporation Carlsbad, CA) can be used to evaluate the encapsulation of an RNA by the nanoparticle composition. […] The fluorescence intensity can be measured using a fluorescence plate reader (Wallac Victor 1420 Multilabel Counter; Perkin Elmer, Waltham, MA) at an excitation wavelength of, for example, about 480 nm and an emission wavelength of, for example, about 520 nm. […]
# EE (%) per entry
Measured Parameter: EE (%)

>>> result("CCCCCCCCC(CCCCCC)C(=O)OCCCCCCCCCN(CCO)CCCCCCCCCOC(=O)C(CCCCCC)CCCCCCCC (centres unmarked)")
"91.48%"
>>> result("CCCCCCCCC(CCCCCCCC)OC(=O)CCCCCCCN(CCO)CCCCCCCC(=O)OC(CCCCCCCC)CCCCCCCC")
"96.99%"
>>> result("CCCCCCCCC(CCCCCCCC)OC(=O)CCCCCCCN(CCO)CCCC(=O)OCCCCC")
"93.25%"
>>> result("CCCCCCCCC(C)OC(=O)CCCCCN(CCO)CCCCCCCC(=O)OC(CCCCCCCC)CCCCCCCC (centres unmarked)")
"98.2%"
>>> result("CCCCCCCCCOC(=O)CCCCCCCN(CCCCCCCC(=O)OC(CCCCCCCC)CCCCCCCC)CCN1CCN(C)CC1")
"98.96%"
>>> result("CCCCCCCCC(CCCCCCCC)OC(=O)CCCCCCCN(CCO)CCCC(=O)OCCCCCC")
"95.8%"
>>> result("CCCCCCCCCOC(=O)CCCCCCCN(CCCCCCCC(=O)OC(CCCCCCCC)CCCCCCCC)C(CO)CO")
"98.47%"
>>> result("CCCCCCCCCCCOC(=O)CCCCCN(CCO)CCCCCC(=O)OC(CCCCCCCCCC)CCCCCCCCCC")
"98.3%"
>>> result("CCCCCCCCC(CCCCCCCC)OC(=O)CCCCCCCN(CCO)CCCCCCCCC1CC1CCCCCCCC (centres unmarked)")
"96.40%"
>>> result("CCCCCCCCCOC(=O)CCCCCCCN(CCCCCCCC(=O)OC(CCCCCCCC)CCCCCCCC)CCCN1C(=O)CNC1=O")
"99.0%"
>>> result("CCCCCCCCC(CCCCCCCC)OC(=O)CCCCCCCN(CCO)CCCCCCCC(=O)OCC(CCCCCCC)OC (centres unmarked)")
"25.49%"
>>> result("CCCCCCCCCOC(=O)CCCCCCCN(CCO)CCCCCCCC(=O)OC(CCCCCCCC)CCCCCCCC")
"95.9%"
>>> result("CCCCCCCCCOC(=O)CCCCCCCN(CCCCCCCC(=O)OC(CCCCCCCC)CCCCCCCC)CCCn1cnc2c(N)ncnc21")
"99.4%"
>>> result("CCCCCCCCC(CCCCCCCC)OC(=O)CCCCCCCN(CCO)CCCCCC(=O)OC(CCCCCCCC)C1CC1 (centres unmarked)")
"92.45%"
>>> result("CCCCCCCCC(CCCCCCCC)OC(=O)CCCCCCCN(CCO)CCCCCC")
"77.07%"
>>> result("CCCCCCCCCOC(=O)CCCCCCCN(CCO)CCCCCCCC(=O)OC(C)CCCCCCCC (centres unmarked)")
"81.45%"
>>> result("CCCCCCCCC(CCC)OC(=O)CCCCCCCN(CCO)CCCCCCCC(=O)OC(CCCCCCCC)CCCCCCCC (centres unmarked)")
"97.33%"

Numbers sourced from patent US12263248B2.
